Test system: MCF-7 cells
Assay Comment: In vitro cell activity assay (MCF-7, insulin stimulation, ELISA-One)
Type: cell-based
Measurement Context: Homo sapiens, MCF7, compound 2 hours in serum-free media, then 10 μg/ml insulin 30 min
pIC50: −log10 of the molar value.
// values below are reported pIC50

These recorded examples may help you get a feel for the data.
COc1ncc(-c2ccc3ncc(OCCN4CCC(F)CC4)c(=O)n3c2)cc1NS(=O)(=O)c1sc(C)nc1C: ≥ 7.30
COc1ncc(-c2ccc3ncc(OCCN4C[C@@H](C)O[C@@H](C)C4)c(=O)n3c2)cc1NS(=O)(=O)c1ccc(F)cc1Cl: ≥ 7.30
COc1ncc(-c2ccc3ncc(OCCN(C)C)c(=O)n3c2)cc1NS(=O)(=O)c1sccc1C: ≥ 7.30
COc1ncc(-c2ccc3ncc(OCCCN4CCN(C)CC4)c(=O)n3c2)cc1NS(=O)(=O)c1ccc(F)cc1Cl: ≥ 7.30

Moving on to another molecule below.
**Query** Look up pIC50: COc1ncc(-c2ccc3ncc(OCC4CCNC4)c(=O)n3c2)cc1NS(=O)(=O)c1ccc(F)cc1Cl (centres unmarked)
**Result** < 6.60
